Molecular target: human FXR (NR1H4) (Homo sapiens)
Sequence (Q96RI1 whole entry, the tested form may be a part): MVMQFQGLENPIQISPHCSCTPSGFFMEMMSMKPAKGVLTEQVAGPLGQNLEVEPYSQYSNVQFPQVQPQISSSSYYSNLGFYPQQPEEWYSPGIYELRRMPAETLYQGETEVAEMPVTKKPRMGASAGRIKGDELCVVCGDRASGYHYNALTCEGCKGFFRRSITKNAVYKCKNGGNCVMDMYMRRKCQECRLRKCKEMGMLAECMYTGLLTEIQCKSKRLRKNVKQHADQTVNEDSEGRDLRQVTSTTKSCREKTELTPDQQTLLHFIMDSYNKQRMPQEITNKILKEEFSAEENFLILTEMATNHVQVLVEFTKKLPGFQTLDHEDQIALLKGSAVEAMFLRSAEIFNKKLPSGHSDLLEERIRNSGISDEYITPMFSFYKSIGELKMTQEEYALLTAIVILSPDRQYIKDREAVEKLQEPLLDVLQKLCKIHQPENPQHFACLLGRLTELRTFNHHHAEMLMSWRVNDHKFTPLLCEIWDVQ
Assay: Human FXR (NR1H4) Assay (Gal4 promoter driven luciferase reporter, Indigo Bioscience kit IB00601)
Settings: FXR agonistic potency; CHO reporter cells expressing human NR1H4; 22 hours incubation; luciferase readout
Could you please report measured EC50 for the items listed next?

Quick batch: EC50 for everything below.
1. CC[C@H]1[C@@H](O)[C@@H]2[C@H](CC[C@]3(C)[C@@H]([C@H](C)COC(=O)NS(=O)(=O)c4ccc5c(c4)CCC(C)(C)O5)CC[C@@H]23)[C@@]2(C)CCC(=O)C[C@@H]12 [Example 34]
2. CC[C@H]1[C@@H](O)[C@@H]2[C@H](CC[C@]3(C)[C@@H]([C@H](C)COC(=O)NS(=O)(=O)c4ccc(OC(F)(F)C(F)(F)F)cc4)CC[C@@H]23)[C@@]2(C)CC[C@@H](O)C[C@@H]12 [Example 30]
3. CC[C@H]1[C@@H](O)[C@@H]2[C@H](C[C@H](O)[C@]3(C)[C@@H]([C@H](C)COC(=O)NS(=O)(=O)c4ccc(OC(C)C)cc4)CC[C@@H]23)[C@@]2(C)CC[C@@H](O)C[C@@H]12 [Example 31]
4. CC[C@H]1[C@@H](O)[C@@H]2[C@H](CC[C@]3(C)[C@@H]([C@H](C)COC(=O)NS(=O)(=O)c4ccc(OCC(C)(C)C)cc4)CC[C@@H]23)[C@@]2(C)CC[C@@H](O)C[C@@H]12 [Example 20]

Found:
< 1 nM
1 to 10 nM
> 100 nM
1 to 10 nM

From: patent US10472386B2
